Origin of values: paper PMC9482650

# target: T1, SHANK1, Q9Y566
# T1 sequence (Q9Y566 658-767, limits assumed, looked up): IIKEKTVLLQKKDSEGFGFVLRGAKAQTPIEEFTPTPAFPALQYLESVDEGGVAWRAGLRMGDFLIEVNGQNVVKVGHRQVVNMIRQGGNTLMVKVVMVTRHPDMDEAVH
# procedure details: holdup assay
# Parameters: key: below the threshold = too weak to quantify, mostly under pKd 3.1 to 4
# test conditions: plain residues with an end cap or a label only (N-terminal biotin on a linker: ahx)
value type: pKd

As a guide, the following entries are already answered.
| binder | pKd |
| --- | --- |
| TVICWPGSLV [LNX2, Q8N448] | 3.48 |
| RRRKRKRTYL [HPV49-L2, P36762] | 4.32 |
| PSASCAVTAA [PDLIM4, P50479;P50479-2] | below the threshold |
| RAVEEEESRF [PSCDBP, O60759] | 4.77 |
| GYDWGPATDL [TJP3, O95049] | 4.39 |
| HNAFLSVTTV [PDZRN4, Q6ZMN7] | below the threshold |
| NRKREIFSNF [NHERF2, Q15599] | below the threshold |
| LSDPSVSTVV [GRIN1, Q05586] | 3.72 |

Entry ESLLLGPSNF [SHROOM4, Q9ULL8] : reported pKd = ?
3.53

How about this binder: SDSSGQEYSL [KCTD3, Q9Y597]
below the threshold
